Assay type: in vivo, human
stated conditions: human, plasma, po, 100 mg, AUCτ, mean (CV%), plasma; AUCτ = AUC24; soticlestat 100 mg QD oral solution, day 14
quantity: AUC (ng·h/mL)
Output spec: scalar in ng·h/mL, unitless text.

Look up AUC: O=C(c1cccnc1-c1ccncc1)N1CCC(O)(Cc2ccccc2)CC1 458

* * *

Type: in vivo, human
stated conditions: human, plasma, oral, elimination half‐life, overall, as summarised in abstract
quantity: half-life

Look up half-life: O=C(c1cccnc1-c1ccncc1)N1CCC(O)(Cc2ccccc2)CC1 ~4 h

* * *

Assay type: in vivo, human
stated conditions: human, plasma, oral, mean terminal elimination half‐life (t ½z), range across groups, day 1 and day 14, all doses
quantity: half-life

Look up half-life: O=C(c1cccnc1-c1ccncc1)N1CCC(O)(Cc2ccccc2)CC1 3.49 to 4.83 h
